Entry source: the supplement of paper PMC6555819

- Test system: LXRb:RXRa (NR concentration 270 nM, RXRa partner concentration 90 nM)
- test.details: PBM binding z-score (relative to random genomic background probes); higher = stronger binding; sequences stand for … in GC…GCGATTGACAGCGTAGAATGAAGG
Label true (1) for high-side PBM binding z-score (at or above 1) and false (0) for low-side PBM binding z-score (below it).

Reported PBM binding z-score reaches at least 1 for TTGCCTAGGTCATTCAGGGGCCAGTATAGAAAGC ?
true (1)

---
Reported PBM binding z-score reaches at least 1 for ATCTCTAGGTAAAGATAGTTCAGTGTATGCAAAT ?
false (0)

Reported PBM binding z-score reaches at least 1 for GCTTGCAGGCCATTTGGGTCACTCAATGACGGGC ?
false (0)

Reported PBM binding z-score reaches at least 1 for AATCAAAGTTCACTAGGTAACGTAAGATTCAGCT ?
true (1)

Reported PBM binding z-score reaches at least 1 for TCTTGTTGATCAAGCAGGTTAAGAAAGCCTGAGT ?
false (0)

Reported PBM binding z-score reaches at least 1 for TTACCAAGCTGAGCTGAGGTCGTTGATCCAACTC ?
false (0)

Reported PBM binding z-score reaches at least 1 for ATATGTAGGTTACATCCGGGGCATTCAGGCTATG ?
true (1)

Reported PBM binding z-score reaches at least 1 for TCATATAGGTAAAGGAGAAAGTCGAACGATATGA ?
false (0)

Reported PBM binding z-score reaches at least 1 for CTAACTAGGTCAAGAGGTCAAAGTCCGCTTCCCG ?
true (1)
